This collection of values is drawn from ChEMBL document CHEMBL6115031.

Assay readout: IC50

Query :: Please report the measured IC50 for COC(=O)[C@H]1C[C@@H](Oc2c(O)ccc3cc(-c4ccc(OC(F)F)c(OCC5CC5)c4)oc23)CN1 tested on cAMP and cAMP-inhibited cGMP 3',5'-cyclic phosphodiesterase 10A (Homo sapiens).
Sequence (Q9Y233 whole entry): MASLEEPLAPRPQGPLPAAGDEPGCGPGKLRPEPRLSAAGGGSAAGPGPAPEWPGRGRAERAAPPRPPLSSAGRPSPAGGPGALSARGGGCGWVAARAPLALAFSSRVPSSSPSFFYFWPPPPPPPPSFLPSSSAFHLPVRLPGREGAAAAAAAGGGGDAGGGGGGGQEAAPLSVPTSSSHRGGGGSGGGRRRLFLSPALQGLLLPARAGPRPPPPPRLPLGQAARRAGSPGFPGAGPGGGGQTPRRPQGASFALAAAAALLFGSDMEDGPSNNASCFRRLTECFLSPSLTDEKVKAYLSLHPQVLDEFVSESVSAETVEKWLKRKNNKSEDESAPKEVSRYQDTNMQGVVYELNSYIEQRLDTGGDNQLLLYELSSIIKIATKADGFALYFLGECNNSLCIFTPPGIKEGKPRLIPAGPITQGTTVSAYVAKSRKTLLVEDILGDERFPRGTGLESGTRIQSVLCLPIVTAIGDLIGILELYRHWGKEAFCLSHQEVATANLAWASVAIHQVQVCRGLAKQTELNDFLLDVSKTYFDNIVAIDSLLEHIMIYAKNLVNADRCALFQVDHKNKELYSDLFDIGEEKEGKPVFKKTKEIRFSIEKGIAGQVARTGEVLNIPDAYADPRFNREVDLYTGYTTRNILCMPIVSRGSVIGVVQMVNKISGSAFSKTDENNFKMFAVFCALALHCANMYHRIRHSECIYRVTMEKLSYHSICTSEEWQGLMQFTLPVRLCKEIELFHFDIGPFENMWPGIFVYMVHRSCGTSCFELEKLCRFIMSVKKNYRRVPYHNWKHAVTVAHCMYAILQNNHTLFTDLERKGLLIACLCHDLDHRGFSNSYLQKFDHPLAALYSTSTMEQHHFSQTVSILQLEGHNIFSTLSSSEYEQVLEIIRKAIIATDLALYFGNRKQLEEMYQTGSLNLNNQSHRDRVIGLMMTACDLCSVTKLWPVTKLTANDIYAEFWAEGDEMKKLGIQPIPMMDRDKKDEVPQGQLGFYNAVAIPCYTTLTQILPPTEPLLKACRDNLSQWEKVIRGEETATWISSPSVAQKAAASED
Result :: 1950 nM

---

Target or test system: UniProt:O76074
Test description: Inhibition of PDE5A1 (535 to 860 residues) (unknown origin) extracted from Escherichia coli BL21 cells using 3H-cAMP/3H-cGMP as substrate preincubated with compound for 15 mins followed by substrate addition by liquid scintillation counter
Assay readout: IC50
For clarity, give the value followed by its unit.

Query :: Give IC50 for this entry on UniProt:O76074: COC(=O)[C@H]1C[C@@H](Oc2c(O)ccc3cc(-c4ccc(OC(F)F)c(OCC5CC5)c4)oc23)CN1
Result :: 1730 nM
